tested on: Vero E6 infected with SARS-CoV-2; assay: inhibition of SARS-CoV-2 cytopathic effect; higher = more antiviral protection, active = above 15; details: 100 nM; 48 h
inhibition of SARS-CoV-2 cytopathic effect reference
assay-metric: inhibition of SARS-CoV-2 cytopathic effect (%)

>  <molecule>
CCNC(=O)N1CCN(CCCC(c2ccc(F)cc2)c2ccc(F)cc2)CC1 [amperozide]

>  <target-or-test-system>
Vero E6 infected with SARS-CoV-2

>  <scale-unit>
%

>  <val>
-8.94

$$$$
>  <molecule>
Cc1cnc(Nc2ccc(N3CCN(C)CC3)cc2)nc1Nc1cccc(S(=O)(=O)NC(C)(C)C)c1

>  <target-or-test-system>
Vero E6 infected with SARS-CoV-2

>  <scale-unit>
%

>  <val>
0.51

$$$$
>  <molecule>
Cc1cccn2c(=O)c(/C=C(\C#N)c3nc4ccccc4s3)c(Oc3ccc(F)cc3)nc12

>  <target-or-test-system>
Vero E6 infected with SARS-CoV-2

>  <scale-unit>
%

>  <val>
-1.07

$$$$
>  <molecule>
C[C@@H](c1nc(-c2ccc(C#N)cc2)cs1)[C@](O)(Cn1cncn1)c1ccc(F)cc1F

>  <target-or-test-system>
Vero E6 infected with SARS-CoV-2

>  <scale-unit>
%

>  <val>
-0.09

$$$$
>  <molecule>
CC(C)CC(N)=O [isovaleramide]

>  <target-or-test-system>
Vero E6 infected with SARS-CoV-2

>  <scale-unit>
%

>  <val>
1.18

$$$$
>  <molecule>
OCCNCCCOc1cccc(Cl)c1Cl

>  <target-or-test-system>
Vero E6 infected with SARS-CoV-2

>  <scale-unit>
%

>  <val>
1.26

$$$$
>  <molecule>
CN1CCN(c2cc(-c3ccccc3)nc(N)n2)CC1

>  <target-or-test-system>
Vero E6 infected with SARS-CoV-2

>  <scale-unit>
%

>  <val>
2.45

$$$$
>  <molecule>
NC(=O)CN1CC[C@@H](NC(=O)[C@@H]2CCCN2)C1=O

>  <target-or-test-system>
Vero E6 infected with SARS-CoV-2

>  <scale-unit>
%

>  <val>
0.01

$$$$
>  <molecule>
CCCCCCCCCCCCCCCC[n+]1ccn(Cc2ccccc2)c1C

>  <target-or-test-system>
Vero E6 infected with SARS-CoV-2

>  <scale-unit>
%

>  <val>
0.65

$$$$
>  <molecule>
COc1cc2ncnc(Nc3ccc(Cl)cc3F)c2cc1OC

>  <target-or-test-system>
Vero E6 infected with SARS-CoV-2

>  <scale-unit>
%

>  <val>
-1.55

$$$$

###

test system: Vero E6 infected with SARS-CoV-2; experiment: inhibition of SARS-CoV-2 cytopathic effect; higher = more antiviral protection, active = above 15; conditions: 1 nM; 48 h
inhibition of SARS-CoV-2 cytopathic effect reference
assay-metric: inhibition of SARS-CoV-2 cytopathic effect (%)

>  <compound>
Nc1c2ccccc2nc2ccccc12

>  <scale-unit>
%

>  <val>
-6.32

$$$$
>  <compound>
Cc1cnc(-c2ccccc2C(C)C)nc1NCc1ccc(-n2ccnn2)cc1

>  <scale-unit>
%

>  <val>
-3.33

$$$$
>  <compound>
CCCCCCCN(CC)CCC[C@@H](O)c1ccc(NS(C)(=O)=O)cc1 (racemic) [ibutilide]

>  <scale-unit>
%

>  <val>
-3.47

$$$$
>  <compound>
CN(C)Cc1cccc(N/C(=C2\C(=O)Nc3cc(C(N)=O)ccc32)c2ccccc2)c1

>  <scale-unit>
%

>  <val>
-2.86

$$$$
>  <compound>
NC(=O)CN1CC[C@@H](NC(=O)[C@@H]2CCCN2)C1=O

>  <scale-unit>
%

>  <val>
1.05

$$$$
>  <compound>
CCn1c(=O)[nH]c2ccccc21

>  <scale-unit>
%

>  <val>
-3.62

$$$$
>  <compound>
C=CC(=O)N1CCC(Oc2cc3c(Nc4ccc(Cl)c(Cl)c4F)ncnc3cc2OC)CC1

>  <scale-unit>
%

>  <val>
-7.08

$$$$
>  <compound>
COc1ccc(C(=O)N2CCCc3cc(C4=NNC(=O)SC4C)ccc32)cc1OC (stereo not drawn)

>  <scale-unit>
%

>  <val>
-1.28

$$$$
>  <compound>
CCC(=O)O[C@@H]1CC(=O)O[C@H](C)C/C=C/C=C/[C@H](OC(C)=O)[C@H](C)C[C@H](CC=O)[C@H](O[C@@H]2O[C@H](C)[C@@H](O[C@H]3C[C@@](C)(OC(C)=O)[C@@H](OC(=O)CC)[C@H](C)O3)[C@H](N(C)C)[C@H]2O)[C@H]1OC

>  <scale-unit>
%

>  <val>
2.92

$$$$
>  <compound>
O=C(N[C@@H](Cc1c[nH]c2ccccc12)C(=O)O)c1ccc(Cl)cc1

>  <scale-unit>
%

>  <val>
1.07

$$$$
>  <compound>
CC(=O)N[C@@H](Cc1c[nH]c2ccccc12)C(=O)OCc1cc(C(F)(F)F)cc(C(F)(F)F)c1

>  <scale-unit>
%

>  <val>
0.3

$$$$
>  <compound>
C[S+](C)CC[C@H](N)C(=O)O

>  <scale-unit>
%

>  <val>
-1.01

$$$$
>  <compound>
CCn1nc(C2CCN(C(=O)CCO)CC2)nc1-c1cnc(N)c(-c2nnc(C(C)(C)C)o2)n1

>  <scale-unit>
%

>  <val>
-2.84

$$$$
>  <compound>
CCC[C@@H]1CC(=O)N([C@@H](CC)C(N)=O)C1

>  <scale-unit>
%

>  <val>
-0.93

$$$$
>  <compound>
COc1c(-c2ccc3cc(NS(C)(=O)=O)ccc3c2)cc(-n2ccc(=O)[nH]c2=O)cc1C(C)(C)C

>  <scale-unit>
%

>  <val>
1.02

$$$$
>  <compound>
COC(=O)Nc1nc2cc(Sc3ccccc3)ccc2[nH]1

>  <scale-unit>
%

>  <val>
0.07

$$$$
>  <compound>
Cc1ccc2c(c1)[C@]13CCCC[C@@H]1[C@H](C2)N(C)CC3

>  <scale-unit>
%

>  <val>
0

$$$$
>  <compound>
CC[C@H](CC#N)OC(=O)N[C@@H](C)c1cccc(NC(=O)Nc2ccc(-c3cnco3)c(OC)c2)c1

>  <scale-unit>
%

>  <val>
0.48

$$$$
